# target.of.assay: UniProt:P42336
# test.summary: PI3K ATP depletion assay (Biological Method 1, Assay 3; KinaseGlo luminescence)
# Type: biochemical
# test.conditions: ATP depletion assay, Biological Method 1; read-out: PI3 Kinase Alpha, IC50
measured.property: IC50

| molecule | IC50 |
| --- | --- |
| N#Cc1ccc(Nc2cc(-c3cnc(N)cc3C(F)(F)F)nc(N3CCOCC3)n2)cn1 [Compound 284] | < 1000 nM |
| CC(=O)N1CCC(Oc2ccc(Nc3cc(-c4cnc(N)nc4N)nc(N4CCOCC4)n3)cn2)CC1 [Compound 261] | < 1000 nM |
| Nc1cc(C(F)(F)F)c(-c2cc(Nc3cccc(CN4CCOCC4)c3)nc(N3CCOCC3)n2)cn1 [Compound 314] | < 1000 nM |
| Nc1ncc(-c2cc(NC(=O)Cc3cccnc3)nc(N3CCOCC3)n2)cn1 [Compound 291] | < 1000 nM |
| Nc1ccc(-c2cc(Nc3ccccc3C(F)(F)F)nc(N3CCOCC3)n2)cn1 [Compound 379] | < 1000 nM |
| Nc1ccc(-c2cc(Sc3ncc[nH]3)nc(N3CCOCC3)n2)cn1 [Compound 296] | < 10000 nM |
| CS(=O)(=O)Nc1cccc(-c2cc(-c3ccc(N)nc3)nc(N3CCOCC3)n2)c1 [Compound 249] | < 1000 nM |
| Nc1ccc(-c2cc(Sc3nc[nH]n3)nc(N3CCOCC3)n2)cn1 [Compound 292] | < 10000 nM |

Given the molecule Nc1ccc(-c2cc(Nc3ccc(N4CCNCC4)nc3)nc(N3CCOCC3)n2)cn1 [Compound 299] , write its reported IC50.
< 1000 nM

Given the molecule CN1CCN(S(=O)(=O)c2cccc(Nc3cc(-c4cnc(N)cc4C(F)(F)F)nc(N4CCOCC4)n3)c2)CC1 [Compound 315] , write its reported IC50.
< 1000 nM

Given the molecule COc1ccc(Nc2cc(-c3cnc(N)cc3C(F)(F)F)nc(N3CCOCC3)n2)cn1 [Compound 199] , write its reported IC50.
< 1000 nM

Given the molecule Nc1ccc(-c2cc(Nc3cc(C(F)(F)F)ccn3)nc(N3CCOCC3)n2)cn1 [Compound 350] , write its reported IC50.
< 1000 nM

Given the molecule Nc1ccc(-c2cc(Nc3ccnc4c(C(F)(F)F)cccc34)nc(N3CCOCC3)n2)cn1 [Compound 383] , write its reported IC50.
< 1000 nM

Given the molecule Nc1ncc(-c2cc(-c3cccc4ncccc34)nc(N3CCOCC3)n2)cn1 [Compound 280] , write its reported IC50.
< 1000 nM

Given the molecule Nc1ccc(-c2cc(-c3nnn[nH]3)nc(N3CCOCC3)n2)cn1 [Compound 309] , write its reported IC50.
< 1000 nM

Given the molecule Nc1ccc(-c2cc(Nc3cc4ccccc4nc3OCCN3CCCC3)nc(N3CCOCC3)n2)cn1 [Compound 286] , write its reported IC50.
< 10000 nM

Given the molecule Nc1ccc(-c2cc(NC(=O)C3CCCCC3)nc(N3CCOCC3)n2)cn1 [Compound 298] , write its reported IC50.
< 1000 nM

---

# target.of.assay: PI3 kinase alpha (Homo sapiens, UniProt P42336)
# Sequence (P42336 whole entry): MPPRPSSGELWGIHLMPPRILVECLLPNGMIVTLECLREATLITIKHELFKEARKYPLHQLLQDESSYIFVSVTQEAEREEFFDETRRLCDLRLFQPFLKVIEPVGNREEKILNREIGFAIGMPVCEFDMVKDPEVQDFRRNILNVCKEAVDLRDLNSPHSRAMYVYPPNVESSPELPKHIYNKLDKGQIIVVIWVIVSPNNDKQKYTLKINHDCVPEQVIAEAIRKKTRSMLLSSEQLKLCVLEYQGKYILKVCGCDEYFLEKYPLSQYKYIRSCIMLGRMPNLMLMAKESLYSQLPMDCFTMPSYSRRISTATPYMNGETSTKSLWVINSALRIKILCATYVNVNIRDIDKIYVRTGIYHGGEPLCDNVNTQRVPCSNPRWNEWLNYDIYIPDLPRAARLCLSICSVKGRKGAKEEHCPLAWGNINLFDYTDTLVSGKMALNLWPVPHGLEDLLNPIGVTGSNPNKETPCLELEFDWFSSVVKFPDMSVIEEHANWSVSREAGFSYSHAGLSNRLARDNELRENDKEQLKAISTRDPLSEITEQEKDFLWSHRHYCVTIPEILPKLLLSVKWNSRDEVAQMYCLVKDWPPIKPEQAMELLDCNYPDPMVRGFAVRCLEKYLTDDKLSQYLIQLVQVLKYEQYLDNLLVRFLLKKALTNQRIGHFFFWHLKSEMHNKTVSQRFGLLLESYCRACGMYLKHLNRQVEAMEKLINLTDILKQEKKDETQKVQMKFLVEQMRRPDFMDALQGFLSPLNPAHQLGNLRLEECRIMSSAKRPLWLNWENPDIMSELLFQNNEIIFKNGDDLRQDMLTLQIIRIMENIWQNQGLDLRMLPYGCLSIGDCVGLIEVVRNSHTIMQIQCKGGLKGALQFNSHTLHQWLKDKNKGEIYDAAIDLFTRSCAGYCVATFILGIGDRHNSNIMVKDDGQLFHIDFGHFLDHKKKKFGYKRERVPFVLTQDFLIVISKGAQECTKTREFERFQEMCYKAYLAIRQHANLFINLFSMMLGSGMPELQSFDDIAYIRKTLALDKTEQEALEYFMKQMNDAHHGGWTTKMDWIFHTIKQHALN
# Sequence (P27986 whole entry partner): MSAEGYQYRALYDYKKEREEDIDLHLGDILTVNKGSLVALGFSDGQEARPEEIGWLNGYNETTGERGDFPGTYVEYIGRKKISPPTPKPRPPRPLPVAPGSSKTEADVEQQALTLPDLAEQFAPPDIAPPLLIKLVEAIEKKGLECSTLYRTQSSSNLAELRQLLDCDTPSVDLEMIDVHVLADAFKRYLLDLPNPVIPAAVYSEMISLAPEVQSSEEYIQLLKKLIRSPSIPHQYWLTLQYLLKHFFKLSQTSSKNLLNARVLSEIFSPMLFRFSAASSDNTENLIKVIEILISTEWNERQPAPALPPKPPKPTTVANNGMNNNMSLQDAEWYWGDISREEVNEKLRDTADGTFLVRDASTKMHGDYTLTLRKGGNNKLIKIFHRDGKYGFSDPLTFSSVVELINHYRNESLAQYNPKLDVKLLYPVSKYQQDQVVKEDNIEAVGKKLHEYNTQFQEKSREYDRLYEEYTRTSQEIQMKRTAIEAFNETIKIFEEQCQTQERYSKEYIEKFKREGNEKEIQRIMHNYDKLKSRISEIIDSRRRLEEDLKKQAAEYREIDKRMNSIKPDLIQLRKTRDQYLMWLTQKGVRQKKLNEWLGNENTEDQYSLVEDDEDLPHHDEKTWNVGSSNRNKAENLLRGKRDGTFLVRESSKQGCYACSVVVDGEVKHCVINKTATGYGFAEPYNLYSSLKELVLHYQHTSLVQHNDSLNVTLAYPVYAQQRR
# test.summary: PI3K ATP depletion assay (Biological Method 1, Assay 3; KinaseGlo luminescence)
# Assay type: biochemical
# test.conditions: ATP depletion assay; read-out: PI3 Kinase Alpha, IC50
pIC50: −log10 of the molar value.
measured.property: pIC50

Solved cases below.
| compound | measured.property | reported.value |
| --- | --- | --- |
| CC(=O)N1CCC(Oc2cc(-c3cnc(N)nc3C(F)(F)F)nc(N3CCOCC3)n2)CC1 | pIC50 | > 6.00 |
| CN(C)c1cc(-c2cnc(N)nc2)nc(N2CCOCC2)n1 | pIC50 | > 6.00 |
| Nc1ccc(-c2cc(Nc3cnc4c(Cl)ccc(OCCN5CCCC5=O)c4c3)nc(N3CCOCC3)n2)cn1 | pIC50 | > 6.00 |
| Nc1cc(C(F)(F)F)c(-c2cc(N3CCOCC3c3ccc(F)cc3)nc(N3CCOCC3)n2)cn1 (centres unmarked) | pIC50 | > 6.00 |
| CN(C)c1ccc(-c2cc(-c3ccc(N)nc3)nc(N3CCOCC3)n2)cn1 | pIC50 | > 6.00 |

Given the compound "Nc1ccc(-c2cc(Nc3ccc(S(N)(=O)=O)cc3)nc(N3CCOCC3)n2)cn1" , write its reported pIC50.
> 6.00

Given the compound "COc1nc(N)ncc1-c1cc(Nc2cnc3ccccc3c2)nc(N2CCOCC2)n1" , write its reported pIC50.
> 6.00

Given the compound "CS(=O)(=O)Nc1nc2ccccc2cc1-c1cc(-c2ccc(N)nc2)nc(N2CCOCC2)n1" , write its reported pIC50.
> 6.00
